# System: UACC-62 melanoma
# experiment_summary: NCI-60 one-dose screen, 48 h
# condition_info: 10 µM unless noted
This is part of a sample that, as a whole, favours compounds with a hit. Of some 83,000 tested, about 20% had one in any assay. Activity calls are given as the source filed them. Rule for the calls: active = growth percent below 10; inactive = the rest.
Bench note: report the call from 1 = active, 0 = inactive

I would be grateful if you could indicate the recorded call for CC(=O)CC(=O)SC1=NCCS1 . 0

I would be grateful if you could indicate the recorded call for COc1ccc(C=C2c3ccccc3-c3ccccc32)cc1 . 0

I would be grateful if you could indicate the recorded call for Nc1nc(Cl)c2ncn(Cc3cc4c(cc3I)OCO4)c2n1 . 0

I would be grateful if you could indicate the recorded call for Fc1cc2[nH]ncc2c2c3c(c(-c4cn[nH]c4)nc12)CCCC3 . 1

I would be grateful if you could indicate the recorded call for Cc1cc(C)c(-c2cc(O)c(-c3c(C)cc(C)cc3C)cc2O)c(C)c1 . 0

I would be grateful if you could indicate the recorded call for NC(=O)c1c(NC(=O)COC(=O)Cc2ccccc2F)sc2c1CCC2 . 0

I would be grateful if you could indicate the recorded call for CCCCN(CC)CC(CC)Nc1cc(OC)cc2cccnc12 (stereo unspecified) . 0

I would be grateful if you could indicate the recorded call for C[C@H]1[C@H](C)CC[C@]2(C(=O)O)CC[C@]3(C)C(=CC[C@@H]4[C@@]5(C)C/C(=C/c6ccco6)C(=O)C(C)(C)[C@@H]5CC[C@]43C)[C@H]12 . 1

I would be grateful if you could indicate the recorded call for COc1ccc(/C=C/C(=C/c2c(O)[nH]c3cc(Br)ccc23)N=O)cc1 . 0

I would be grateful if you could indicate the recorded call for Cc1c(Cn2cc(COc3ccc(Br)cc3)nn2)c(C)c(Cn2cc(COc3ccc(Br)cc3)nn2)c(C)c1Cn1cc(COc2ccc(Br)cc2)nn1 . 0

I would be grateful if you could indicate the recorded call for C1=C[C@H]2O[C@@H]1c1ccc3[nH]ccc3c12 . 0

I would be grateful if you could indicate the recorded call for CCCCOC(=O)c1c(C)[nH]c(/C=C2\N=C(c3ccc[nH]3)C=C2OC)c1C . 1

I would be grateful if you could indicate the recorded call for CC(=O)OC[C@]12CC[C@@H](C(=O)CBr)[C@@H]1[C@H]1CC[C@@H]3[C@@]4(C)CCCNC(C)(C)[C@@H]4CC[C@@]3(C)[C@]1(C)CC2 . 1

I would be grateful if you could indicate the recorded call for COc1ccc(/C=C2\N=C(Nc3ccccc3)N(NC(=O)c3ccccn3)C2=O)cc1 . 0

I would be grateful if you could indicate the recorded call for O=C(NCc1ccc(Cn2c(=O)sn(-c3ccccc3)c2=O)cc1)OCc1ccc2c(Br)cc(Br)c(O)c2n1 . 1

I would be grateful if you could indicate the recorded call for O=c1c2c3c(sc2n2cnnc2n1Cc1ccccc1)CCCC3 . 0

I would be grateful if you could indicate the recorded call for COc1ccc(N(c2nc(-c3ccc([N+](=O)[O-])cc3)cs2)C(C)C)cc1 . 0

I would be grateful if you could indicate the recorded call for Cc1ccc(S(=O)(=O)Oc2ccc(Br)cc2Br)cc1 . 0

I would be grateful if you could indicate the recorded call for O=C1NC(=O)C(Cc2ccccc2)(Cc2ccccc2)N1 . 0

I would be grateful if you could indicate the recorded call for C#CCC(C(=O)OCC)C(=O)OCC . 0

I would be grateful if you could indicate the recorded call for O=C1Nc2ccccc2/C1=C/C(=O)c1ccc(N2CCCCC2)cc1 . 0
